Every entry's value here was drawn from the Deep4Chem optical property database.

Test: solvent given as SMILES
Conditions: in c1ccccc1
Readout kind: log10 fluorescence lifetime (log10 of the value in ns)
Plainly stated, the numbers are log10 of fluorescence lifetime given in ns.

• COc1ccc(-c2c3ccc([nH]3)c3nc(c(-c4ccc([N+](=O)[O-])cc4)c4ccc([nH]4)c4ccc([nH]4)c(-c4ccc(OC)cc4)c4ccc2o4)C=C3)cc1 = 0.62
• Cc1cc(C(F)(F)F)nc2c1ccc1nc(-c3ccc(F)c(F)c3)cn12 = 0.83

INPUT: Entry COc1ccc(-c2nc3c(ccc4ccccc43)oc2=O)cc1 : reported log10 fluorescence lifetime = ?
OUTPUT: 0.32

INPUT: Param item: CN(C)c1ccc2c(c1)C(=O)c1ccccc1-2
OUTPUT: -0.10

INPUT: Param item: CNc1ccc2c(c1)-c1ccccc1C2=O
OUTPUT: 0.97

---

Experiment: solvent given as SMILES
Conditions: in C1CCOC1
Classify: T when fluorescence lifetime is strictly less than 3 ns; F when fluorescence lifetime is not.

Answered examples (5):
- O=C1OC(=O)c2ccc(N(c3ccccc3)c3ccc4ccccc4c3)c3cccc1c23: T
- COc1ccc2c(=O)c3c([nH]c2c1)-c1cc(Cl)ccc1NC3(C)C: F
- COc1ccc(C2=C(c3ccc(OC)cc3)[Si](c3ccccc3)(c3ccccc3)c3ccccc32)cc1: T
- CCC1(CC)c2ccccc2-c2c1c1c(c3c2C(CC)(CC)c2cc(/C=C/c4cccs4)ccc2-3)C(CC)(CC)c2ccccc2-1: T
- CCn1c2ccccc2c2cc(-c3cc(-c4ccc5c(c4)c4ccccc4n5CC)nc(C#N)n3)ccc21: T

INPUT: Does the reported fluorescence lifetime of CCCCN1C(=O)c2cc(Oc3ccc(C(C)(C)C)cc3)c3c4c(Oc5ccc(C(C)(C)C)cc5)cc5c(=O)[nH]/c(=C\c6ccccn6)c6cc(Oc7ccc(C(C)(C)C)cc7)c(c7c(Oc8ccc(C(C)(C)C)cc8)cc(c2c37)C1=O)c4c56 stay below 3 ns?
OUTPUT: F

INPUT: Param item: COC(=O)c1ccc(-c2ccc3c(c2)C(=O)c2cc(-c4ccc(C(=O)OC)cc4)ccc2-3)cc1
OUTPUT: T

---

Test: solvent given as SMILES
Conditions: in CC1CCCCC1
# fluorescence lifetime per record follows
Numbers only here, please. The scale is ns.

• C(=C\c1ccnc2ccccc12)/c1c2ccccc2cc2ccccc12 = 2.6
• COc1c2ccccc2c(-c2ccccc2)c2ccccc12 = 2.48
• Nc1ccc2c(C(F)(F)F)cc(=O)oc2c1 = 1.22
• CNc1cccc2c1C(=O)c1ccccc1C2=O = 0.445
• c1cc(N2CCCC2)ccn1 = 11

INPUT: Entry CN(C)c1ccc(/C=C/c2nc3c4ccccc4c4ccccc4c3[nH]2)cc1 : reported fluorescence lifetime = ?
OUTPUT: 0.471

INPUT: Param item: N#Cc1ccc(/C=C/c2c3ccccc3cc3ccccc23)cc1
OUTPUT: 3.01

INPUT: Param item: N#Cc1ccc(/C=C/c2ccc3ccc4cccc5ccc2c3c45)cc1
OUTPUT: 2.05

---

Test: solvent given as SMILES
Settings: in CC(C)=O
Kindly note that classification relies on fluorescence lifetime with these boundaries: b0 = under 1 ns, b1 = from 1 ns up to 4 ns, b2 = 4 ns and over

INPUT: Using the reported fluorescence lifetime, which band applies to CCC1=C(C)C2=C(C)c3c(I)c(I)c(I)n3[B-](F)(F)[N+]2=C1C ?
OUTPUT: b0

INPUT: Param item: CCC1=C(C)C2=C(C)c3c(I)c(I)cn3[B-](F)(F)[N+]2=C1C
OUTPUT: b0

INPUT: Param item: c1ccc(-c2nn(-c3ccccc3)c3nc4ccccc4cc23)cc1
OUTPUT: b2
